Tested on: VDR:RXRa (NR concentration 270 nM, RXRa partner concentration 90 nM)
test_details: PBM binding z-score (relative to random genomic background probes); higher = stronger binding; sequences stand for … in GC…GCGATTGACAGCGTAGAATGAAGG
Label condition met when PBM binding z-score >= 1; otherwise condition not met.

chain_sequence: CAACCTAGGTCAAGGTCAAAGTCGGTTTGTGCCA
study_system: VDR:RXRa (NR concentration 270 nM, RXRa partner concentration 90 nM)
group: condition met
//
chain_sequence: CCTAGTTTGTCAGGAGGTCACACACCGGATATGA
study_system: VDR:RXRa (NR concentration 270 nM, RXRa partner concentration 90 nM)
group: condition met
//
chain_sequence: CAAACTAGTTCACGAAAGGTCAAAGTCGAATGAC
study_system: VDR:RXRa (NR concentration 270 nM, RXRa partner concentration 90 nM)
group: condition met
//
chain_sequence: CAAACTAGGTCACCGGAAGGTCACAGTCCGCATG
study_system: VDR:RXRa (NR concentration 270 nM, RXRa partner concentration 90 nM)
group: condition met
//
chain_sequence: CAAACTAGGTCACAGAGGTCTAAGTCCGTGCGTA
study_system: VDR:RXRa (NR concentration 270 nM, RXRa partner concentration 90 nM)
group: condition met
//
chain_sequence: ATCGAACGGTCGTGAGGTGAGTATACAGAAAGGC
study_system: VDR:RXRa (NR concentration 270 nM, RXRa partner concentration 90 nM)
group: condition not met
//
chain_sequence: CGAACTAGGTCAAGGACACTGAATCTCCGCACGC
study_system: VDR:RXRa (NR concentration 270 nM, RXRa partner concentration 90 nM)
group: condition met
//
chain_sequence: ATCTCTAGGTAAGACTCAGTTCAGGGAAGAACGC
study_system: VDR:RXRa (NR concentration 270 nM, RXRa partner concentration 90 nM)
group: condition met
//
chain_sequence: ACAGACTGGTGAGTGAAGGTAACTCAGCTGGACG
study_system: VDR:RXRa (NR concentration 270 nM, RXRa partner concentration 90 nM)
group: condition not met
//
chain_sequence: CAAACTAGGTCAAGATCAAAGTCGGTTTGTGCCA
study_system: VDR:RXRa (NR concentration 270 nM, RXRa partner concentration 90 nM)
group: condition met
//
chain_sequence: ATCTCTAGGTAAGACTCTGTTCAGTGAAGAACGC
study_system: VDR:RXRa (NR concentration 270 nM, RXRa partner concentration 90 nM)
group: condition not met
//
chain_sequence: GCATATAGGAAATACAAGGTGAAAGTCCGATTGT
study_system: VDR:RXRa (NR concentration 270 nM, RXRa partner concentration 90 nM)
group: condition not met

# credit: the supplement of paper PMC6555819
